test: Lg. P, octanol/water partition coefficient determined by reversed phase HPLC; format: physicochemical; details: reversed phase hplc
1 if chromatographic logP is below 1. 0 if not; exact matches included in 0.

[
  {
    "molecule": "O=C(O)CCCCCN1CC([N+](=O)[O-])=C2N(Cc3ccc(Cl)nc3)CCN2C1 [Example 4]",
    "discrete.label": 0
  },
  {
    "molecule": "COC(=O)C(C(C)C)N1CC([N+](=O)[O-])=C2N(Cc3ccc(Cl)nc3)CCN2C1 (centres unmarked) [Example 28]",
    "discrete.label": 0
  },
  {
    "molecule": "CC(C)OC(=O)CCN1CC([N+](=O)[O-])=C2N(Cc3ccc(Cl)nc3)CCN2C1 [Example 23]",
    "discrete.label": 0
  },
  {
    "molecule": "COC(=O)CCCN1CC([N+](=O)[O-])=C2N(Cc3ccc(Cl)nc3)CCN2C1 [Example 15]",
    "discrete.label": 0
  }
]

Criterion: chromatographic logP strictly below 1. Is it met by CCOC(=O)CCCN1CC([N+](=O)[O-])=C2N(Cc3ccc(Cl)nc3)CCN2C1 [Example 5] ?
1
